test: In vitro metabolic stability in rat hepatocytes (including calculation of hepatic in vivo blood clearance); assay type: in vitro ADME; settings: Han Wistar, hepatocytes (freshly isolated, suspension), read-out: CL (hepatic in vivo blood clearance) (converted)

Compound	CLhep predicted at 1 μM
Cc1cc(-c2cnc3c(NCCC(F)(F)F)cc(C(C)(O)c4cccc(F)c4O)nn23)ccc1C(=O)NC1CC1 (racemic)	45 mL/min/kg
Cc1cc(-c2cnc3c(NCCC(F)(F)F)cc(C(=O)c4cccc(F)c4F)nn23)ccc1C(=O)NC1CC1	35 mL/min/kg
Cc1cc(-c2cnc3c(NCCC(F)(F)F)cc(C(F)(F)c4cccc(F)c4)nn23)ccc1C(=O)NC1CC1	21.7 mL/min/kg
Cc1cc(-c2cnc3c(NCCC(F)(F)F)cc(C(F)c4cccc(F)c4)nn23)ccc1C(=O)NC1CC1 (racemic)	35 mL/min/kg
COc1cccc(Cc2cc(NCCC(F)(F)F)c3ncc(-c4ccc(C(=O)NC5CC5)c(C)c4)n3n2)c1 [Comparative Example 4, reference compound]	56.7 mL/min/kg
COc1ccc(C(F)(F)c2cc(NCCC(F)(F)F)c3ncc(-c4ccc(C(=O)NC5CC5)c(C)c4)n3n2)cc1F	25 mL/min/kg
Cc1cc(-c2cnc3c(NCCC(F)(F)F)cc(C4(c5cc(F)ccc5O)CC4)nn23)ccc1C(=O)NC1CC1	41.7 mL/min/kg
Cc1cc(-c2cnc3c(NCCC(F)(F)F)cc(C(=O)c4cc(F)ccc4F)nn23)ccc1C(=O)NC1CC1	23.3 mL/min/kg
Cc1cc(-c2cnc3c(NCCC(F)(F)F)cc(C4(c5cccc(F)c5)CC4)nn23)ccc1C(=O)NC1CC1	33.3 mL/min/kg
Cc1cc(-c2cnc3c(NCCC(F)(F)F)cc(Cc4cccc(F)c4O)nn23)ccc1C(=O)NC1CC1 [Comparative Example 2, reference compound]	68.3 mL/min/kg
